Attribution: patent US20240208986A1

# testTarget: RIPK1 (recombinant GST-RIPK1 kinase domain, residues 1-327) (Homo sapiens (Human), UniProt Q13546)
# Sequence (Q13546 1-327): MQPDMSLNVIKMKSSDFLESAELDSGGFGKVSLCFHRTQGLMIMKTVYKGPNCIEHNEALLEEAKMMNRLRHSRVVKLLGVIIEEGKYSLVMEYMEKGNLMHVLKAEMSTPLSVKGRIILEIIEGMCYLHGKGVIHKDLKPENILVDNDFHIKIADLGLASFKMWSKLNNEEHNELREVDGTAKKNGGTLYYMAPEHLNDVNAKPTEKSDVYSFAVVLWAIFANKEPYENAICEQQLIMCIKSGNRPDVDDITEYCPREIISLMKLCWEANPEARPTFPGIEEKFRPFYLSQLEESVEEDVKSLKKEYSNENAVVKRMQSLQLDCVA
# experimentDescription: RIPK1-ADP-Glo Enzymatic Assay
# conditions: 25 nM GST-RIPK1, 300 μM ATP, 3 μM dephosphorylated-MBP; 30 minutes pre-incubation, 150 minutes reaction; ten-point titration
measuredAttribute: log10(IC50) (log10 of the value in nM)

compound | result
O=C(N1C[C@@H]2C[C@H]1c1cccc(F)c1O2)C12CCC(CC1)C2 [Compound 2-15] | 1.38
CC(C)(C(=O)N1C[C@@H]2C[C@H]1c1ccc(Cl)cc1O2)C(F)F [Compound 2-21] | 1.57
COC12CCC(C(=O)N3C[C@@H]4C[C@H]3c3ccccc3O4)(CC1)C2 [Compound 1-46] | 2.07
O=C(N1C[C@@H]2C[C@H]1c1ccccc1O2)C12CCCC(C1)C2 [Compound 1-10] | 2.14
CC1(C(=O)N2C[C@@H]3C[C@H]2c2ccccc2O3)CCCC1 [Compound 1-6] | 1.63
O=C(N1C[C@@H]2C[C@H]1c1ccccc1O2)C12CCC(F)(CC1)C2 [Compound 1-40] | 1.36
N#CC12CCC(C(=O)N3C[C@@H]4C[C@H]3c3ccccc3O4)(CC1)CC2 [Compound 1-47] | 2.45
O=C(N1C[C@@H]2C[C@H]1c1ccccc1O2)C1(C(F)(F)F)CCC1 [Compound 1-16] | 1.98
CC1(C(=O)N2C[C@@H]3C[C@H]2c2ccccc2O3)CC1(F)F (mixture of isomers) [Compound 1-14] | 2.50
CC(C)(C(=O)N1C[C@@H]2C[C@H]1c1cc(Cl)ccc1O2)C(F)F [Compound 2-1] | 1.79
CC(C)(C(=O)N1C[C@@H]2C[C@H]1c1cc(F)cc(F)c1O2)C(F)F [Compound 2-26] | 1.08
O=C(N1C[C@@H]2C[C@H]1c1ccccc1O2)C1(F)CCCC1 [Compound 1-19] | 2.70
O=C(N1C[C@@H]2C[C@H]1c1ccccc1O2)C12CC(C(F)F)(C1)C2 [Compound 1-60] | 2.71
O=C(N1C[C@@H]2C[C@H]1c1ccccc1O2)C12CC3CC(CC(C3)C1)C2 [Compound 1-23] | 2.37
CC(C)(CC#N)C(=O)N1C[C@@H]2C[C@H]1c1ccc(Cl)cc1O2 [Compound 2-23] | 1.69
O=C(N1C[C@@H]2C[C@H]1c1cc(F)cc(F)c1O2)C12CCC(F)(CC1)C2 [Compound 2-35] | 1.08
O=C(N1C[C@@H]2C[C@H]1c1ccccc1O2)C1(C(F)(F)F)CCCC1 [Compound 1-26] | 1.78
N#CC1(C(=O)N2C[C@@H]3C[C@H]2c2ccccc2O3)CCC1 [Compound 1-30] | 1.88
CC(C)(C)C(=O)N1C[C@]2(C)C[C@H]1c1ccccc1O2 [Compound 3-5] | 4.25
CC(C)(C)CC(=O)N1C[C@@H]2C[C@H]1c1ccccc1O2 [Compound 1-21] | 2.95
CC(C)(C#N)C(=O)N1C[C@@H]2C[C@H]1c1ccccc1O2 [Compound 1-59] | 2.20
CN(C)C1(C(=O)N2C[C@@H]3C[C@H]2c2ccccc2O3)CCC1 [Compound 1-25] | 2.15
O=C(N1C[C@@H]2C[C@H]1c1ccccc1O2)C12CCC(C(F)(F)F)(CC1)C2 [Compound 1-44] | 1.23
O=C(N1C[C@@H]2C[C@H]1c1ccccc1O2)C12CC(C1)C2 [Compound 1-38] | 2.16
CC(C)(C(=O)N1C[C@@H]2C[C@H]1c1cc(F)cc(Cl)c1O2)C(F)F [Compound 2-24] | 1.48
O=C(N1C[C@@H]2C[C@H]1c1ccccc1O2)C12CCC(CC1)C2 [Compound 1-4] | 1.52
CC1(C(=O)N2C[C@@H]3C[C@H]2c2ccccc2O3)CC1(Cl)Cl (mixture of isomers) [Compound 1-20] | 1.79
CC1(C(=O)N2C[C@@H]3C[C@H]2c2cc(F)ccc2O3)CCC1 [Compound 2-9] | 1.80
O=C(N1C[C@@H]2C[C@H]1c1ccccc1O2)C12CCC(c3ccccc3)(CC1)CC2 [Compound 1-51] | 2.86
O=C(N1C[C@@H]2C[C@H]1c1cc(Cl)ccc1O2)C12CCC(F)(CC1)C2 [Compound 2-32] | 1.59
CCC(C)(C)C(=O)N1C[C@@H]2C[C@H]1c1ccccc1O2 [Compound 1-22] | 1.32
O=C(C1CCN(c2nccn3ncnc23)CC1)N1C[C@@H]2C[C@H]1c1ccccc1O2 [Compound 1-39] | 2.33
O=C(N1C[C@@H]2C[C@H]1c1ccccc1O2)C12CCC(C(F)F)(CC1)C2 [Compound 1-41] | 1.11
N#Cc1ccnc(N2CCC(F)(C(=O)N3C[C@@H]4C[C@H]3c3cc(F)cc(F)c3O4)CC2)n1 [Compound 2-34] | 1.43
CC(C)(C(=O)N1C[C@@H]2C[C@H]1c1cccc(F)c1O2)C(F)F [Compound 2-8] | 1.30
CC(C)(C)C(=O)N1C2CCC1c1ccccc1OC2 (single isomer, unassigned) [Compound 3-1] | 2.45
